experiment notes: cytotoxicity in PPC-1 cells, confirmation, cytotoxicity control for TRAIL apoptosis potentiator project, cell-based, ATP content luminescence (AID 1447)
condition summary: PPC-1 viability, ATPlite luminescence, overnight; at 5 µM
The other results are listed elsewhere or left out. The source made the active and inactive calls.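 The calls were made as follows: active = reconfirmed compounds whose average cytotoxicity reaches 50% or more; inactive = the rest.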
Give one outcome, nothing more. List: active, inactive

compound | answer label
COc1cccc(/C=C/C(=O)Nc2ccc3c(c2)OCCO3)c1 | inactive
O=C(Nc1cccc(O)c1)c1ccc(C(=O)c2ccccc2)o1 | inactive

Now look at this one.
[ask] # outcome recorded in this test, key = Cc1ccc(-n2nc3cc(C)c(NC(=O)c4cccnc4)cc3n2)cc1
[reply] inactive
